- System: IL-1α
- test.description: Inhibition of IL-1 production by stimulated human peripheral blood leukocytes in vitro
- Assay type: cell-based
- study.conditions: 10 μM; LPS-stimulated PBL
reported.metric: Percentage of inhibition of IL-1α production

compound	result
CCC1OC(=O)C(C)C(OC2CC(C)(OC)C(OCCCN3CCN(CCN(CC)CC)CC3)C(C)O2)C(C)C(OC2OC(C)CC(N(C)C)C2O)C(C)(O)CC(C)CN(C)C(C)C2OC(=O)OC12C (stereo not shown)	0%

The value of Percentage of inhibition of IL-1α production measured for the compound `CCC(=O)N(C)[C@H]1C[C@@H](C)O[C@@H](O[C@@H]2[C@@H](C)[C@H](O[C@H]3C[C@@](C)(OC)[C@@H](OC(=O)CCN(CC)CC)[C@H](C)O3)[C@@H](C)C(=O)O[C@H](CC)[C@@](C)(O)[C@H](O)[C@@H](C)NC(=O)[C@H](C)C[C@@]2(C)OC)[C@@H]1O` turned out to be 59%

Per the records, this compound ( `CC[C@H]1OC(=O)[C@H](C)[C@@H](O[C@H]2C[C@@](C)(OC)[C@@H](OCCCN(CC)CC)[C@H](C)O2)[C@H](C)[C@@H](O[C@@H]2O[C@H](C)C[C@H](N(C)C)[C@H]2O)[C@](C)(O)C[C@@H](C)CN(C)[C@H](C)[C@H]2OC(=O)O[C@@]21C` ) has Percentage of inhibition of IL-1α production equal to 0%

Briefly, Percentage of inhibition of IL-1α production measured for CCC1OC(=O)C(C)C(OC2CC(C)(OC)C(OC(=O)CCN(CC)CC)C(C)O2)C(C)C(OC2OC(C)CC(N(C)C)C2O)C(C)(OC)CC(C)C(=O)NC(C)C(O)C1(C)O (stereo not shown) : 66%
